- Assayed System: T1, Recombinant LRP cluster II (UniProt Q07954 805-1184, limits assumed)
- T1 construct: domain: cluster II
- T1 sequence (looked up): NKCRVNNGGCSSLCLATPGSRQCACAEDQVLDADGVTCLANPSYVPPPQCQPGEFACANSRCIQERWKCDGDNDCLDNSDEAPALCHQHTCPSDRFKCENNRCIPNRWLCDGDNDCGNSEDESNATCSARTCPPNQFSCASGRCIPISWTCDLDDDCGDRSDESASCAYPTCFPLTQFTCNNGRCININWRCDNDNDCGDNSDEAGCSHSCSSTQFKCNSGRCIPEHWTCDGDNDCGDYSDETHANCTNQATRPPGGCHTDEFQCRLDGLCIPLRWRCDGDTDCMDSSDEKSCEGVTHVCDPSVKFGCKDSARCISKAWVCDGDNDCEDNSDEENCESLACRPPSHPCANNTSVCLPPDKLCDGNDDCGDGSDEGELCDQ
- Measurement Protocol: solid-phase competition: peptide against FVIII light chain (25 nM) binding to immobilised LRP cluster II
Parameter Measured: IC50 (µM)

[[record]]
binder = "DGKKWQTYRG (also called 2108-2117) [Synthetic peptide FVIII Asp^2108-Gly^2117]"
data_value = 900

[[record]]
binder = "KNFVKPNETKTYFWK [Synthetic peptide FVIII Lys^1804-Lys^1818]"
data_value = 1.9

[[record]]
binder = "YFWKVQHHMAPTKDEFDCKA [Synthetic peptide FVIII Tyr^1815-Ala^1834]"
data_value = 16.8

